Origin of measurements: patent US20260021103A1

- Subject of test: IKZF1 (Homo sapiens, UniProt Q13422+Q96SW2)
- Construct: expressed in transfected cells; host or cells: HEK293T (lentiviral transduction, puromycin selection, FACS sorting)
- Sequence (Q13422 whole entry): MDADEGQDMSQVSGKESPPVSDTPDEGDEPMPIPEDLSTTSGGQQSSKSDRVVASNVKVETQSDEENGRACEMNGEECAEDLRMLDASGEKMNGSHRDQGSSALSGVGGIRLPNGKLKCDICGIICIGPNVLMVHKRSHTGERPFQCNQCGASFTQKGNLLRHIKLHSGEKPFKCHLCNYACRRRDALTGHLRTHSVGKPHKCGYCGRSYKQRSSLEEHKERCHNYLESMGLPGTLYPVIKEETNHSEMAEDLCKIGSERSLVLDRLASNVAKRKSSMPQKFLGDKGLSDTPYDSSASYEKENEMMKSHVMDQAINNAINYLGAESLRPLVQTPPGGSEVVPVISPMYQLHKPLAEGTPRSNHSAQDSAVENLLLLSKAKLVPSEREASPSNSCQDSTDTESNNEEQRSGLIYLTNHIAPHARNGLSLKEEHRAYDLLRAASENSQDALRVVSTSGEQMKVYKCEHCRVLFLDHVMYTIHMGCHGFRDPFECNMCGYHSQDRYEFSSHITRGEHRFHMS
- Sequence (Q96SW2 whole entry): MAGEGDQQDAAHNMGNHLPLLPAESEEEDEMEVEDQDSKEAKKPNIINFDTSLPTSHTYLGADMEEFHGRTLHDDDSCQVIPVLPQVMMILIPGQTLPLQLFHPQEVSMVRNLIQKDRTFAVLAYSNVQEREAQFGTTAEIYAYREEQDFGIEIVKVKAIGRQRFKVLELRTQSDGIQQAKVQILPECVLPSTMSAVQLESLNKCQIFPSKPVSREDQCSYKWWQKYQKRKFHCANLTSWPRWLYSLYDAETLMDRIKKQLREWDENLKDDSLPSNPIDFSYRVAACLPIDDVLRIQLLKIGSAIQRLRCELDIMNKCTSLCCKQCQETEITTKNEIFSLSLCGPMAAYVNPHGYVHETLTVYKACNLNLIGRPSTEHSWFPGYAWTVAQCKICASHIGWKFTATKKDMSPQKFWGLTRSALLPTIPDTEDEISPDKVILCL
- Sequence (Q16531 whole entry partner): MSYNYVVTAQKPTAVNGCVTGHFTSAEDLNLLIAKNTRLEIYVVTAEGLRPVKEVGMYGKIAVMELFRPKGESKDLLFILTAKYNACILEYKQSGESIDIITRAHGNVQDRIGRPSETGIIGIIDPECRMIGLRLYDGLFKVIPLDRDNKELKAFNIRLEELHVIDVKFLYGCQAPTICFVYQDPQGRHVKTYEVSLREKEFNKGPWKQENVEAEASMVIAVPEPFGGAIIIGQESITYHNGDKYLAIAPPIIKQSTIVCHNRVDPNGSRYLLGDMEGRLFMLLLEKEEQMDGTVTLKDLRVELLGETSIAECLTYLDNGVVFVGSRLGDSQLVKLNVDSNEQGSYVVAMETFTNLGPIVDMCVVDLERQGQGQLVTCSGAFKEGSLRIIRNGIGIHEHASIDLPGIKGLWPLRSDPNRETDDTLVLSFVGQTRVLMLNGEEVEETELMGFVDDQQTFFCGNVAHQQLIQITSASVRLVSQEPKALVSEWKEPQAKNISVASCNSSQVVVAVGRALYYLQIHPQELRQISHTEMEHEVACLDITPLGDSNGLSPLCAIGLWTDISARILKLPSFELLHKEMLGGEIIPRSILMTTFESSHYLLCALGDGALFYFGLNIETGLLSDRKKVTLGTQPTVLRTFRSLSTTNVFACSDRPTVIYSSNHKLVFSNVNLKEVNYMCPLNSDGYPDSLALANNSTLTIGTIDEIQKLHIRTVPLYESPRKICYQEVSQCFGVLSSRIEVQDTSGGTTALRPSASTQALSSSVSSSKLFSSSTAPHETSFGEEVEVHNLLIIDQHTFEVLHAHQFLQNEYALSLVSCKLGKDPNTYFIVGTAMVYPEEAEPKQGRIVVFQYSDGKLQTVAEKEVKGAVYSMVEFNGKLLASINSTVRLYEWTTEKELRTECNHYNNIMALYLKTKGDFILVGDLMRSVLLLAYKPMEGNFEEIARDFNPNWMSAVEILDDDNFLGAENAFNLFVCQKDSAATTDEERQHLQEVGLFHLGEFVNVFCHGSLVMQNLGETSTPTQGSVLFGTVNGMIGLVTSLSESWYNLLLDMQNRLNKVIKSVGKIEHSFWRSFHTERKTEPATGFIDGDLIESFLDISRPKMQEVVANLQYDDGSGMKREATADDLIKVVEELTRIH
- Assay text: Flow cytometry for measuring degradation, HEK293T GFP-POI reporter cells (IKZF1)
- Format: cell-based
- Setup conditions: 100 nM, 24 h, HEK293T GFP reporter
Decision: IKZF1% degradation at 100 nM beneath 20% gives y; IKZF1% degradation at 100 nM meeting or exceeding 20% gives n.

// below: answered molecules
COc1ccc2c(CC(=O)Nc3ccc4c(c3)CN(C3CCC(=O)NC3=O)C4=O)cccc2c1 (centres unmarked) [DEG-58] = n
CN1C(=O)COc2cc(C(=O)Nc3ccc4c(c3)CN(C3CCC(=O)NC3=O)C4=O)ccc21 (centres unmarked) [DEG-94] = y
O=C1CCC(N2Cc3cc(NC(=O)c4ccc5ncsc5c4)ccc3C2=O)C(=O)N1 (centres unmarked) [DEG-72] = y
COc1ccc(/C=C/C(=O)Nc2ccc3c(c2)CN(C2CCC(=O)NC2=O)C3=O)cc1 (centres unmarked) [DEG-60] = y
COc1ccc(Oc2ccc(C(=O)Nc3ccc4c(c3)CN(C3CCC(=O)NC3=O)C4=O)cc2)cc1 (centres unmarked) [DEG-70] = y
CS(=O)(=O)c1ccc2cc(C(=O)Nc3ccc4c(c3)CN(C3CCC(=O)NC3=O)C4=O)ccc2c1 (centres unmarked) [DEG-93] = y

Ask | Please indicate whether the reported IKZF1% degradation at 100 nM of O=C1CCC(N2Cc3cc(NC(=O)Cc4ccc5ccccc5c4)ccc3C2=O)C(=O)N1 (centres unmarked) [DEG-71] is strictly below 20%.
Reply | n

Ask | Please indicate whether the reported IKZF1% degradation at 100 nM of O=C1CCC(N2Cc3cc(NC(=O)c4ccc(Oc5ccccc5)cc4)ccc3C2=O)C(=O)N1 (centres unmarked) [DEG-61] is strictly below 20%.
Reply | y

====

- Subject of test: IKZF1 (Homo sapiens, UniProt Q13422+Q96SW2)
- Construct: expressed in transfected cells; host or cells: HEK293T (lentiviral transduction, puromycin selection, FACS sorting)
- Assay text: Flow cytometry for measuring degradation, HEK293T GFP-POI reporter cells (IKZF1)
- Type: cell-based
- Setup conditions: 1 μM, 24 h, HEK293T GFP reporter
If the reported IKZF1% degradation at 1 μM equals or exceeds 30%, assign 1 (yes). If not, assign 0 (no).

// below: answered compounds
CS(=O)(=O)c1ccc2cc(C(=O)Nc3ccc4c(c3)CN(C3CCC(=O)NC3=O)C4=O)ccc2c1 (stereo not shown) = 0 (no)
COc1ccc2c(c1)OCC(C(=O)Nc1ccc3c(c1)CN(C1CCC(=O)NC1=O)C3=O)=C2 (stereo not shown) = 1 (yes)
O=C1CCC(N2Cc3cc(NC(=O)C4=Cc5cc(Br)cc(Br)c5OC4)ccc3C2=O)C(=O)N1 (stereo not shown) = 0 (no)
COc1ccc2c(CC(=O)Nc3ccc4c(c3)CN(C3CCC(=O)NC3=O)C4=O)cccc2c1 (stereo not shown) = 1 (yes)
CSc1ccc2cc(C(=O)Nc3ccc4c(c3)CN(C3CCC(=O)NC3=O)C4=O)ccc2c1 (stereo not shown) = 0 (no)
CC(=O)Nc1ccc2c(c1)CN(C1CCC(=O)NC1=O)C2=O (stereo not shown) = 0 (no)
O=C1CCC(N2Cc3cc(NC(=O)c4ccc5c(c4)CCCC5)ccc3C2=O)C(=O)N1 (stereo not shown) = 0 (no)
COc1ccc(CCC(=O)Nc2ccc3c(c2)CN(C2CCC(=O)NC2=O)C3=O)cc1 (stereo not shown) = 1 (yes)

Ask | Does IKZF1% degradation at 1 μM meet or surpass 30% for O=C1CCC(N2Cc3cc(NC(=O)c4cc5ccccc5o4)ccc3C2=O)C(=O)N1 (stereo not shown) ?
Reply | 0 (no)

Ask | Does IKZF1% degradation at 1 μM meet or surpass 30% for COc1cc(C(=O)Nc2ccc3c(c2)CN(C2CCC(=O)NC2=O)C3=O)ccc1Oc1ccccc1 (stereo not shown) ?
Reply | 0 (no)

====

- Subject of test: IKZF2 (Homo sapiens, UniProt Q96SW2+Q9UKS7)
- Construct: expressed in transfected cells; host or cells: HEK293T (lentiviral transduction, puromycin selection, FACS sorting)
- Sequence (Q9UKS7 whole entry, one chain of several): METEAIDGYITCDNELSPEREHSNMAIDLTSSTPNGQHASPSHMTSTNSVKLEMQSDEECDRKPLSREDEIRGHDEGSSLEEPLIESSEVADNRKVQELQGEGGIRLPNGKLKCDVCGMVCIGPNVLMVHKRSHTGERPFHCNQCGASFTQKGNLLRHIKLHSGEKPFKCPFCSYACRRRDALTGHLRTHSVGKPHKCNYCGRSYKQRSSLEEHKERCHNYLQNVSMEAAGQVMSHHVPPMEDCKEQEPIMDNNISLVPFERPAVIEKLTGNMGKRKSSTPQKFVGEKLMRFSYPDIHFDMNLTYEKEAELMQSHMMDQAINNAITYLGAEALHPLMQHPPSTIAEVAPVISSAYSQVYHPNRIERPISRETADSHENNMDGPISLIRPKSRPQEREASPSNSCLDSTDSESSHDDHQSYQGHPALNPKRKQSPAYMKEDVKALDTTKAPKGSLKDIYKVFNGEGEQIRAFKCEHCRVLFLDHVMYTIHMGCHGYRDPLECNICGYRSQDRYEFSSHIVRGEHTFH
- Assay text: Flow cytometry for measuring degradation, HEK293T GFP-POI reporter cells (IKZF2)
- Type: cell-based
- Setup conditions: 1 μM, 24 h, HEK293T GFP reporter
Below, each entry is listed with its recorded IKZF2% degradation at 1 μM.
Record the value in %, omitting the unit from your answer.

O=C1CCC(N2Cc3cc(NC(=O)c4ccc(Sc5ccccc5)cc4)ccc3C2=O)C(=O)N1 (stereo not shown) = 87.8
O=C1CCC(N2Cc3cc(NC(=O)c4ccc5occc5c4)ccc3C2=O)C(=O)N1 (stereo not shown) = 90.6
O=C1CCC(N2Cc3cc(NC(=O)C4=Cc5ccc(C(F)(F)F)cc5OC4)ccc3C2=O)C(=O)N1 (stereo not shown) = 91.8

Proceed to the following item.
Looking up O=C1CCC(N2Cc3cc(NC(=O)c4ccc5ncsc5c4)ccc3C2=O)C(=O)N1 (stereo not shown) , I see its IKZF2% degradation at 1 μM listed as 82.5

====

- Subject of test: CK1α (Homo sapiens, UniProt P48729+Q96SW2)
- Construct: expressed in transfected cells; host or cells: HEK293T (lentiviral transduction, puromycin selection, FACS sorting)
- Sequence (P48729 whole entry, one chain of several): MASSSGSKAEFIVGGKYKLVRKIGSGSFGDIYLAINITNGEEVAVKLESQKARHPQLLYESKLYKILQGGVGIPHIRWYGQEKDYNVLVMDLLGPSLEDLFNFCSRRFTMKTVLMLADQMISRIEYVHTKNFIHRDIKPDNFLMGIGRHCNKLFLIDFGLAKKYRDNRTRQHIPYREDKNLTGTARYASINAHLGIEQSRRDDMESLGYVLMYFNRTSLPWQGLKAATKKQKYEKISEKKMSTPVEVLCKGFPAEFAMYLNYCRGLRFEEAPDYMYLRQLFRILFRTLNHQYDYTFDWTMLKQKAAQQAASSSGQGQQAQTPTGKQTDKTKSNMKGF
- Assay text: Flow cytometry for measuring degradation, HEK293T GFP-POI reporter cells (CK1α)
- Type: cell-based
- Setup conditions: 100 nM, 24 h, HEK293T GFP reporter
If the reported CK1α % degradation at 100 nM equals or exceeds 60%, assign YES. If not, assign NO.

// below: answered molecules
O=C1CCC(N2Cc3cc(NC(=O)c4ccc5ncsc5c4)ccc3C2=O)C(=O)N1 (stereo not drawn) [DEG-72] = NO
O=C1CCC(N2Cc3cc(NC(=O)c4ccc5c(c4)CCCC5)ccc3C2=O)C(=O)N1 (stereo not drawn) [DEG-87] = NO

Next, consider the following molecule.
Ask | Does CK1α % degradation at 100 nM meet or surpass 60% for O=C1CCC(N2Cc3cc(NC(=O)c4cccc(C(=O)c5ccccc5)c4)ccc3C2=O)C(=O)N1 (stereo not drawn) [DEG-51] ?
Reply | YES

====

- Subject of test: IKZF2 (Homo sapiens, UniProt Q96SW2+Q9UKS7)
- Construct: expressed in transfected cells; host or cells: HEK293T (lentiviral transduction, puromycin selection, FACS sorting)
- Assay text: Flow cytometry for measuring degradation, HEK293T GFP-POI reporter cells (IKZF2)
- Assay type: cell-based
- Setup conditions: 100 nM, 24 h, HEK293T GFP reporter
Decision: IKZF2% degradation at 100 nM beneath 80% gives 1; IKZF2% degradation at 100 nM meeting or exceeding 80% gives 0.

// below: answered compounds
O=C1CCC(N2Cc3cc(NC(=O)C4=Cc5cc(Br)cc(Br)c5OC4)ccc3C2=O)C(=O)N1 (stereo not drawn) = 1
CN1C(=O)CCc2cc(C(=O)Nc3ccc4c(c3)CN(C3CCC(=O)NC3=O)C4=O)ccc21 (stereo not drawn) = 1
COCOc1ccc2cc(C(=O)Nc3ccc4c(c3)CN(C3CCC(=O)NC3=O)C4=O)ccc2c1 (stereo not drawn) = 0
O=C1CCC(N2Cc3cc(NC(=O)c4ccc(Sc5ccccc5)cc4)ccc3C2=O)C(=O)N1 (stereo not drawn) = 1
C[C@H](NC(=O)c1ccccc1)C(=O)Nc1ccc2c(c1)CN(C1CCC(=O)NC1=O)C2=O (stereo partly drawn) = 1
COc1ccc(Oc2cccc(C(=O)Nc3ccc4c(c3)CN(C3CCC(=O)NC3=O)C4=O)c2)cc1 (stereo not drawn) = 0

Ask | Please indicate whether the reported IKZF2% degradation at 100 nM of O=C1CCC(N2Cc3cc(NC(=O)c4cccc(C(=O)c5ccccc5)c4)ccc3C2=O)C(=O)N1 (stereo not drawn) is strictly below 80%.
Reply | 0

Ask | Please indicate whether the reported IKZF2% degradation at 100 nM of O=C1CCC(N2Cc3cc(NC(=O)c4ccc5c(c4)OCO5)ccc3C2=O)C(=O)N1 (stereo not drawn) is strictly below 80%.
Reply | 1

Ask | Please indicate whether the reported IKZF2% degradation at 100 nM of CC(=O)Nc1ccc2c(c1)CN(C1CCC(=O)NC1=O)C2=O (stereo not drawn) is strictly below 80%.
Reply | 1

Ask | Please indicate whether the reported IKZF2% degradation at 100 nM of COc1cccc2c1C=C(C(=O)Nc1ccc3c(c1)CN(C1CCC(=O)NC1=O)C3=O)CO2 (stereo not drawn) is strictly below 80%.
Reply | 1

Ask | Please indicate whether the reported IKZF2% degradation at 100 nM of O=C1CCC(N2Cc3cc(NC(=O)c4ccc5occc5c4)ccc3C2=O)C(=O)N1 (stereo not drawn) is strictly below 80%.
Reply | 1

Ask | Please indicate whether the reported IKZF2% degradation at 100 nM of CC(=O)N1CCC[C@H]1C(=O)Nc1ccc2c(c1)CN(C1CCC(=O)NC1=O)C2=O (stereo partly drawn) is strictly below 80%.
Reply | 1
